# Species on record: Rattus norvegicus
# MEASUREMENT NOTES: Open TG-GATES - Regimen: Daily Repeat
# Type: toxicity, organism-based, Sprague-Dawley
# Design: regimen Daily Repeat, gender Male, age 6 weeks
# RECORDED CONDITIONS: in vivo, po, 0 mg/kg, […], tissue Plasma, route gavage, dose level Control, time 28 day
Recorded TP, one value per entry.
The figure you give is taken to be in g/dL; do not add the unit.

Known results for compounds:
O=C(O)Cc1ccccc1Nc1c(Cl)cccc1Cl [DICLOFENAC] : 6.3
CCOC(=O)[C@H](CCc1ccccc1)N[C@@H](C)C(=O)N1CCC[C@H]1C(=O)O : 6.2
CN1C(C(=O)Nc2ccccn2)=C(O)c2sc(Cl)cc2S1(=O)=O [LORNOXICAM] : 6.1

Exercise: Would you kindly share the measured TP for C#C[C@]1(O)CC[C@H]2[C@@H]3CCC4=Cc5oncc5C[C@]4(C)[C@H]3CC[C@@]21C [DANAZOL] ?
Solution: 5.9

Exercise: Consider next the compound CN(C)[C@@H]1C(O)=C(C(N)=O)C(=O)[C@@]2(O)C(O)=C3C(=O)c4c(O)cccc4[C@@](C)(O)[C@H]3C[C@@H]12 [TETRACYCLINE] in the same way.
Solution: 6.1

Exercise: Consider next the compound Cc1cccc(Nc2ccccc2C(=O)O)c1C [MEFENAMIC ACID] in the same way.
Solution: 6.2

Exercise: Consider next the compound CC(=O)Nc1nnc(S(N)(=O)=O)s1 [ACETAZOLAMIDE] in the same way.
Solution: 6.1

Exercise: Consider next the compound Clc1c(Cl)c(Cl)c(Cl)c(Cl)c1Cl [PERCHLOROBENZENE] in the same way.
Solution: 6.5

Exercise: Consider next the compound CC(CN1c2ccccc2Sc2ccccc21)N(C)C (stereo not given) [PROMETHAZINE] in the same way.
Solution: 6.2

Exercise: Consider next the compound C1CCC(C(CC2CCCCN2)C2CCCCC2)CC1 (stereo not given) [PERHEXILINE] in the same way.
Solution: 6

* * *

# Organism: Rattus norvegicus
# MEASUREMENT NOTES: Open TG-GATES - Regimen: Daily Repeat
# Format: toxicity, organism-based, Sprague-Dawley
# Design: regimen Daily Repeat, gender Male, age 6 weeks
# RECORDED CONDITIONS: in vivo, po, 0 mg/kg, […], tissue Blood, route gavage, dose level Control, time 7 day
MEASURE NAME: MCV (fL)
The figure you give is taken to be in fL; do not add the unit.

Known results for molecules:
CC(=O)Nc1nnc(S(N)(=O)=O)s1 [ACETAZOLAMIDE] : 61.1
Cc1cccc(Nc2ccccc2C(=O)O)c1C [MEFENAMIC ACID] : 60.1
C#C[C@]1(O)CC[C@H]2[C@@H]3CCC4=Cc5oncc5C[C@]4(C)[C@H]3CC[C@@]21C [DANAZOL] : 60.1
CCOC(=O)[C@H](CCc1ccccc1)N[C@@H](C)C(=O)N1CCC[C@H]1C(=O)O : 64.6
CN1C(C(=O)Nc2ccccn2)=C(O)c2sc(Cl)cc2S1(=O)=O [LORNOXICAM] : 61.4

Exercise: Would you kindly share the measured MCV for C1CCC(C(CC2CCCCN2)C2CCCCC2)CC1 (centres undefined) [PERHEXILINE] ?
Solution: 61.3

Exercise: Consider next the molecule CN(C)[C@@H]1C(O)=C(C(N)=O)C(=O)[C@@]2(O)C(O)=C3C(=O)c4c(O)cccc4[C@@](C)(O)[C@H]3C[C@@H]12 [TETRACYCLINE] in the same way.
Solution: 64.3

Exercise: Consider next the molecule CC(CN1c2ccccc2Sc2ccccc21)N(C)C (centres undefined) [PROMETHAZINE] in the same way.
Solution: 61.7

Exercise: Consider next the molecule Clc1c(Cl)c(Cl)c(Cl)c(Cl)c1Cl [PERCHLOROBENZENE] in the same way.
Solution: 65.2

* * *

# Species: Rattus norvegicus
# MEASUREMENT NOTES: Open TG-GATES - Regimen: Daily Repeat
# Assay type: toxicity, organism-based, Sprague-Dawley
# Design: regimen Daily Repeat, gender Male, age 6 weeks
# RECORDED CONDITIONS: in vivo, po, 0 mg/kg, […], route gavage, dose level Control, time 28 day
MEASURE NAME: TERMINAL_BW (g)
The figure you give is taken to be in g; do not add the unit.

Known results for molecules:
Cc1cccc(Nc2ccccc2C(=O)O)c1C [MEFENAMIC ACID] : 409.8
CN(C)[C@@H]1C(O)=C(C(N)=O)C(=O)[C@@]2(O)C(O)=C3C(=O)c4c(O)cccc4[C@@](C)(O)[C@H]3C[C@@H]12 [TETRACYCLINE] : 360.5
C1CCC(C(CC2CCCCN2)C2CCCCC2)CC1 (stereo not given) [PERHEXILINE] : 335.5
C#C[C@]1(O)CC[C@H]2[C@@H]3CCC4=Cc5oncc5C[C@]4(C)[C@H]3CC[C@@]21C [DANAZOL] : 402.2
CCOC(=O)[C@H](CCc1ccccc1)N[C@@H](C)C(=O)N1CCC[C@H]1C(=O)O : 401.8
Clc1c(Cl)c(Cl)c(Cl)c(Cl)c1Cl [PERCHLOROBENZENE] : 417.1
CC(CN1c2ccccc2Sc2ccccc21)N(C)C (stereo not given) [PROMETHAZINE] : 402.8
O=C(O)Cc1ccccc1Nc1c(Cl)cccc1Cl [DICLOFENAC] : 396.3

Exercise: Would you kindly share the measured TERMINAL_BW for CC(=O)Nc1nnc(S(N)(=O)=O)s1 [ACETAZOLAMIDE] ?
Solution: 366.7

Exercise: Consider next the molecule CN1C(C(=O)Nc2ccccn2)=C(O)c2sc(Cl)cc2S1(=O)=O [LORNOXICAM] in the same way.
Solution: 380.8

* * *

Recorded Mono, one value per entry.
# Species on record: Rattus norvegicus
# MEASUREMENT NOTES: Open TG-GATES - Regimen: Daily Repeat
# Type: toxicity, organism-based, Sprague-Dawley
# Set-up: regimen Daily Repeat, gender Male, age 6 weeks
# RECORDED CONDITIONS: in vivo, po, 0 mg/kg, […], tissue Blood, route gavage, dose level Control, time 28 day
Please state the number and follow it with the unit.

Exercise: Would you kindly share the measured Mono for "CCOC(=O)[C@H](CCc1ccccc1)N[C@@H](C)C(=O)N1CCC[C@H]1C(=O)O" ?
Solution: 6%

Exercise: Consider next the compound C1CCC(C(CC2CCCCN2)C2CCCCC2)CC1 (stereo not given) in the same way.
Solution: 1.4%

Exercise: Consider next the compound "CN1C(C(=O)Nc2ccccn2)=C(O)c2sc(Cl)cc2S1(=O)=O" in the same way.
Solution: 1.8%

Exercise: Consider next the compound "C#C[C@]1(O)CC[C@H]2[C@@H]3CCC4=Cc5oncc5C[C@]4(C)[C@H]3CC[C@@]21C" in the same way.
Solution: 1.8%

Exercise: Consider next the compound "Clc1c(Cl)c(Cl)c(Cl)c(Cl)c1Cl" in the same way.
Solution: 4.8%

* * *

# Species: Rattus norvegicus
# MEASUREMENT NOTES: Open TG-GATES - Regimen: Single
# Type: toxicity, organism-based, Sprague-Dawley
# Parameters: regimen Single, gender Male, age 6 weeks
# RECORDED CONDITIONS: in vivo, po, 0 mg/kg, 3 h, tissue Plasma, route gavage, dose level Control
Param label: returns TRUE when DBIL < 0.008 mg/dL, returns FALSE otherwise, including exact equality.

CN(C)[C@@H]1C(O)=C(C(N)=O)C(=O)[C@@]2(O)C(O)=C3C(=O)c4c(O)cccc4[C@@](C)(O)[C@H]3C[C@@H]12 : FALSE
C#C[C@]1(O)CC[C@H]2[C@@H]3CCC4=Cc5oncc5C[C@]4(C)[C@H]3CC[C@@]21C : TRUE
COc1cc([C@@H]2c3cc4c(cc3[C@@H](O[C@@H]3O[C@@H]5CO[C@@H](C)O[C@H]5[C@H](O)[C@H]3O)[C@H]3COC(=O)[C@H]23)OCO4)cc(OC)c1O [ETOPOSIDE] : FALSE

Exercise: Bench note: check whether CC(CN1c2ccccc2Sc2ccccc21)N(C)C (stereo not given) shows DBIL below 0.008 mg/dL
Solution: TRUE

Exercise: Consider next the molecule "Clc1c(Cl)c(Cl)c(Cl)c(Cl)c1Cl" in the same way.
Solution: FALSE

Exercise: Consider next the molecule CC(=O)Nc1nnc(S(N)(=O)=O)s1 [ACETAZOLAMIDE] in the same way.
Solution: TRUE

Exercise: Consider next the molecule "CN1C(C(=O)Nc2ccccn2)=C(O)c2sc(Cl)cc2S1(=O)=O" in the same way.
Solution: FALSE

Exercise: Consider next the molecule "Cc1cccc(Nc2ccccc2C(=O)O)c1C" in the same way.
Solution: FALSE

Exercise: Consider next the molecule C1CCC(C(CC2CCCCN2)C2CCCCC2)CC1 (stereo not given) in the same way.
Solution: TRUE

This collection of values is drawn from ChEMBL document CHEMBL3885861.
